tested on: antibodies in sera from SARS patients (sera 1a, 1b, 2, 6, 37, 62, London, SARS-yellow, SARS-green); format: binding, human
quantity-name: Binding of serum 1a to linear peptide (PEPSCAN-ELISA)

> print(dat)
     residue.codes  numeric.value
1  AEGSRGGSQASSRSS            0.3
2  TQAFGRRGPEQTQGN            0.2
3  GNSRNSTPGSSRGNS            0.7
4  NQLESKVSGKGQQQQ            0.3
5  GQQQQGQTVTKKSAA            0.3
6  TQGNFGDQDLIRQGT            0.3

====

test system: antibodies in sera from SARS patients (sera 1a, 1b, 2, 6, 37, 62, London, SARS-yellow, SARS-green); assay type: binding, human
quantity-name: Binding of serum SARS-green to linear peptides of protein X5 of SARS-CoV Urbani

> print(dat)
     residue.codes  numeric.value
1  ALIARCWYLHEGHQT            0.7
2  GKVLPFHRWHTMVQT            0.3
3  TAAFRDVLVVLNKRT            0.2

====

// Binding of serum SARS-yellow to linear peptides of protein X1 of SARS-CoV Urbani lookup, one value per entry
test system: antibodies in sera from SARS patients (sera 1a, 1b, 2, 6, 37, 62, London, SARS-yellow, SARS-green); type: binding, human
quantity-name: Binding of serum SARS-yellow to linear peptides of protein X1 of SARS-CoV Urbani

> print(dat)
     residue.codes  numeric.value
1  ATATIPLQASLPFGW            0.5
2  PYNSVTDTIVVTEGD            0.3
3  NSVTDTIVVTEGDGI            0.6
4  VTDTIVVTEGDGIST            0.3
5  YYQLESTQITTDTGI            0.3
6  FLAVFQSATKIIALN            0.4
7  ALNKRWQLALYKGFQ            0.4

====

system: rabbit serum obtained by immunizing a rabbit with the SARS-CoV strain Frankfurt 1; format: binding; set-up: unit not given here
quantity-name: Binding of a rabbit serum to looped peptides

> print(dat)
      residue.codes                              study.system  numeric.value
 1  EVYYQLESTQITTDT  rabbit serum obtained by immunizing a rabbit with the SARS-CoV strain Frankfurt 1            0.4
 2  TPKLKEDYQIGGYSE  rabbit serum obtained by immunizing a rabbit with the SARS-CoV strain Frankfurt 1            1.2
 3  MRFFTLGSITAQPVK  rabbit serum obtained by immunizing a rabbit with the SARS-CoV strain Frankfurt 1            0.2
 4  VVTEGDGISTPKLKE  rabbit serum obtained by immunizing a rabbit with the SARS-CoV strain Frankfurt 1            0.4
 5  PASTVHATATIPLQA  rabbit serum obtained by immunizing a rabbit with the SARS-CoV strain Frankfurt 1            0.5
 6  LLKTHRMCKYTQSTA  rabbit serum obtained by immunizing a rabbit with the SARS-CoV strain Frankfurt 1            0.3
 7  LVAAGMEAQFLYLYA  rabbit serum obtained by immunizing a rabbit with the SARS-CoV strain Frankfurt 1            0.6
 8  CNIVNVSLVKPTVYV  rabbit serum obtained by immunizing a rabbit with the SARS-CoV strain Frankfurt 1            0.5
 9  GMEAQFLYLYALIYF  rabbit serum obtained by immunizing a rabbit with the SARS-CoV strain Frankfurt 1            0.6
10  ALIYFLQCINACRII  rabbit serum obtained by immunizing a rabbit with the SARS-CoV strain Frankfurt 1            0.6
11  LLLFVTIYSHLLLVA  rabbit serum obtained by immunizing a rabbit with the SARS-CoV strain Frankfurt 1            0.5
12  LLLLFVTIYSHLLLV  rabbit serum obtained by immunizing a rabbit with the SARS-CoV strain Frankfurt 1            0.5
13  HRMCKYTQSTALQEL  rabbit serum obtained by immunizing a rabbit with the SARS-CoV strain Frankfurt 1            0.4
14  STNLCTHSFRKKQVR  rabbit serum obtained by immunizing a rabbit with the SARS-CoV strain Frankfurt 1            0.2
15  LQELLIQQWIQFMMS  rabbit serum obtained by immunizing a rabbit with the SARS-CoV strain Frankfurt 1            0.3
16  AGTHITMTTVYHITV  rabbit serum obtained by immunizing a rabbit with the SARS-CoV strain Frankfurt 1            0.5
17  FMMSRRRLLACLCKH  rabbit serum obtained by immunizing a rabbit with the SARS-CoV strain Frankfurt 1            0.6
18  FTTSLSLHKLLQTLV  rabbit serum obtained by immunizing a rabbit with the SARS-CoV strain Frankfurt 1            0.9
19  KLKEDYQIGGYSEDR  rabbit serum obtained by immunizing a rabbit with the SARS-CoV strain Frankfurt 1            0.5
20  YSHLLLVAAGMEAQF  rabbit serum obtained by immunizing a rabbit with the SARS-CoV strain Frankfurt 1            0.4
21  KCKSKNPLLYDANYF  rabbit serum obtained by immunizing a rabbit with the SARS-CoV strain Frankfurt 1            0.6
22  RIGTQVLKTMSLYMA  rabbit serum obtained by immunizing a rabbit with the SARS-CoV strain Frankfurt 1            0.5
23  QVLKTMSLYMAISPK  rabbit serum obtained by immunizing a rabbit with the SARS-CoV strain Frankfurt 1            0.5
24  PTTLFAGTHITMTTV  rabbit serum obtained by immunizing a rabbit with the SARS-CoV strain Frankfurt 1            0.4
25  VSTNLCTHSFRKKQV  rabbit serum obtained by immunizing a rabbit with the SARS-CoV strain Frankfurt 1            0.2
26  KPTVYVYSRVKNLNS  rabbit serum obtained by immunizing a rabbit with the SARS-CoV strain Frankfurt 1            0.9
27  LLLVAAGMEAQFLYL  rabbit serum obtained by immunizing a rabbit with the SARS-CoV strain Frankfurt 1            0.5
28  KDYVVVHGYFTEVYY  rabbit serum obtained by immunizing a rabbit with the SARS-CoV strain Frankfurt 1            0.5
29  CKSKNPLLYDANYFV  rabbit serum obtained by immunizing a rabbit with the SARS-CoV strain Frankfurt 1            0.6
30  RCWLCWKCKSKNPLL  rabbit serum obtained by immunizing a rabbit with the SARS-CoV strain Frankfurt 1            0.7
31  LESTQITTDTGIENA  rabbit serum obtained by immunizing a rabbit with the SARS-CoV strain Frankfurt 1            0.5
32  LCKHKKVSTNLCTHS  rabbit serum obtained by immunizing a rabbit with the SARS-CoV strain Frankfurt 1            0.3
33  SLLKTHRMCKYTQST  rabbit serum obtained by immunizing a rabbit with the SARS-CoV strain Frankfurt 1            0.3
34  HTIDGSSGVANPAMD  rabbit serum obtained by immunizing a rabbit with the SARS-CoV strain Frankfurt 1            0.4
35  LKTMSLYMAISPKFT  rabbit serum obtained by immunizing a rabbit with the SARS-CoV strain Frankfurt 1            0.4
36  ATATIPLQASLPFGW  rabbit serum obtained by immunizing a rabbit with the SARS-CoV strain Frankfurt 1            0.6
37  QSTALQELLIQQWIQ  rabbit serum obtained by immunizing a rabbit with the SARS-CoV strain Frankfurt 1            0.4
38  ATIPLQASLPFGWLV  rabbit serum obtained by immunizing a rabbit with the SARS-CoV strain Frankfurt 1            0.5
39  HITVSQIQLSLLKVT  rabbit serum obtained by immunizing a rabbit with the SARS-CoV strain Frankfurt 1            0.4
40  TALQELLIQQWIQFM  rabbit serum obtained by immunizing a rabbit with the SARS-CoV strain Frankfurt 1            0.4
41  TSLLKTHRMCKYTQS  rabbit serum obtained by immunizing a rabbit with the SARS-CoV strain Frankfurt 1            0.4
42  ATFFIFNKLVKDPPN  rabbit serum obtained by immunizing a rabbit with the SARS-CoV strain Frankfurt 1            0.6
43  VAAGMEAQFLYLYAL  rabbit serum obtained by immunizing a rabbit with the SARS-CoV strain Frankfurt 1            0.5
44  VYYQLESTQITTDTG  rabbit serum obtained by immunizing a rabbit with the SARS-CoV strain Frankfurt 1            0.5
45  LVIGVAFLAVFQSAT  rabbit serum obtained by immunizing a rabbit with the SARS-CoV strain Frankfurt 1            1.2
46  PFGWLVIGVAFLAVF  rabbit serum obtained by immunizing a rabbit with the SARS-CoV strain Frankfurt 1            0.5
47  TEGDGISTPKLKEDY  rabbit serum obtained by immunizing a rabbit with the SARS-CoV strain Frankfurt 1            0.5
48  YDYCIPYNSVTDTIV  rabbit serum obtained by immunizing a rabbit with the SARS-CoV strain Frankfurt 1            0.5
49  NASPASTVHATATIP  rabbit serum obtained by immunizing a rabbit with the SARS-CoV strain Frankfurt 1            0.3
50  SLLKVTAFQHQNSKK  rabbit serum obtained by immunizing a rabbit with the SARS-CoV strain Frankfurt 1            0.3
51  CKYTQSTALQELLIQ  rabbit serum obtained by immunizing a rabbit with the SARS-CoV strain Frankfurt 1            0.2
52  GYSEDRHSGVKDYVV  rabbit serum obtained by immunizing a rabbit with the SARS-CoV strain Frankfurt 1            0.3
53  YCIPYNSVTDTIVVT  rabbit serum obtained by immunizing a rabbit with the SARS-CoV strain Frankfurt 1            0.5
54  LIQQWIQFMMSRRRL  rabbit serum obtained by immunizing a rabbit with the SARS-CoV strain Frankfurt 1            1.2
55  YFVCWHTHNYDYCIP  rabbit serum obtained by immunizing a rabbit with the SARS-CoV strain Frankfurt 1            0.6
56  YFLQCINACRIIMRC  rabbit serum obtained by immunizing a rabbit with the SARS-CoV strain Frankfurt 1            0.8
57  HATATIPLQASLPFG  rabbit serum obtained by immunizing a rabbit with the SARS-CoV strain Frankfurt 1            0.5
58  STVHATATIPLQASL  rabbit serum obtained by immunizing a rabbit with the SARS-CoV strain Frankfurt 1            0.5
59  STALQELLIQQWIQF  rabbit serum obtained by immunizing a rabbit with the SARS-CoV strain Frankfurt 1            0.4
60  FNKLVKDPPNVQIHT  rabbit serum obtained by immunizing a rabbit with the SARS-CoV strain Frankfurt 1            0.7
61  DLFMRFFTLGSITAQ  rabbit serum obtained by immunizing a rabbit with the SARS-CoV strain Frankfurt 1            0.3
62  IQFMMSRRRLLACLC  rabbit serum obtained by immunizing a rabbit with the SARS-CoV strain Frankfurt 1            1.1
63  TIDGSSGVANPAMDP  rabbit serum obtained by immunizing a rabbit with the SARS-CoV strain Frankfurt 1            0.4
64  KVTAFQHQNSKKTTK  rabbit serum obtained by immunizing a rabbit with the SARS-CoV strain Frankfurt 1            0.2
65  IYSHLLLVAAGMEAQ  rabbit serum obtained by immunizing a rabbit with the SARS-CoV strain Frankfurt 1            0.4
66  LCWKCKSKNPLLYDA  rabbit serum obtained by immunizing a rabbit with the SARS-CoV strain Frankfurt 1            0.8
